- Tested on: CCRF-CEM leukemia
- experimental.protocol: NCI tumour cell line growth inhibition, 48 h
test.readout: TGI

{"smiles.code": "Cc1ccc2c(c1)[nH]c(=S)n2/C=C1\\C(=O)Oc2ccccc2C1=O", "target.or.test.system": "CCRF-CEM leukemia", "TGI": "> 100 µM"}
{"smiles.code": "C(=C\\c1cccs1)/c1cccc(/C=C/c2cccs2)n1", "target.or.test.system": "CCRF-CEM leukemia", "TGI": "> 100 µM"}

Proceed to the following item.
TGI for CS(=O)(=O)c1nc(-c2cc3c(c(S(C)(=O)=O)n2)CCC3)cc2c1CCCCC2 is > 100 µM

* * *

TGI for assorted compounds
- System: DU-145 prostate
- experimental.protocol: NCI tumour cell line growth inhibition, 48 h

A selection of reference data follows.
{"compound": "C[C@]12C=CC(=O)C=C1CC[C@@H]1[C@@H]2CC[C@]2(C)OC(=O)CC[C@@H]12", "target.or.test.system": "DU-145 prostate", "TGI": "> 500 µM"}
{"compound": "CN[C@@H](C)C(=O)N[C@H](C(=O)N1CCC[C@H]1C(=O)Nc1snnc1-c1ccccc1)C1CCCCC1", "target.or.test.system": "DU-145 prostate", "TGI": "> 100 µM"}
{"compound": "COc1cc(O)c2c(=O)cc(-c3ccc(O)cc3O)oc2c1CC=C(C)C", "target.or.test.system": "DU-145 prostate", "TGI": "> 100 µM"}
{"compound": "CC(=O)NC1C(OCc2ccccc2)OC(CO)C(O)C1OC(C)C(=O)NC(C(=O)N[C@@H](CCC(=O)NCCNCCNc1c2ccccc2nc2cccc([N+](=O)[O-])c12)C(N)=O)C(C)C (stereo not given in full)", "target.or.test.system": "DU-145 prostate", "TGI": "> 100 µM"}
{"compound": "CCC(C)(CC(C)(C)C(=O)NCC(=O)NC(Cc1ccccc1)C(=O)NC(Cc1ccccc1)C(=O)NCC(=O)NC1CC(OC2CC(O)(C(=O)CO)Cc3c(O)c4c(c(O)c32)C(=O)c2c(OC)cccc2C4=O)OC(C)C1O)C(=O)NCC(C)O (stereo not given)", "target.or.test.system": "DU-145 prostate", "TGI": "> 150 µg/mL"}

Record for COc1ccc(Nc2nnc(-c3nsc4ccccc34)s2)cc1 under target or system DU-145 prostate: TGI reported as > 100 µM

Record for O=C(CN1CCCCC1)Nc1ccc2sc3ccccc3c(=O)c2n1 under target or system DU-145 prostate: TGI reported as > 100 µM

Record for N#CC(NC12CC3CC(CC(C3)C1)C2)c1ccc2c(c1)OCO2 (stereo not given) under target or system DU-145 prostate: TGI reported as > 100 µM

Record for COc1ccc(-c2cc(=O)[nH]c3c(OC)c4ccccc4c(OC)c23)cc1 under target or system DU-145 prostate: TGI reported as > 100 µM

Record for Clc1ccc(NCc2nnc(CCCCCCCCc3nnc(CNc4ccc(Cl)cc4)o3)o2)cc1 under target or system DU-145 prostate: TGI reported as > 100 µM

* * *

- Tested on: SK-MEL-28 melanoma
- experimental.protocol: NCI tumour cell line growth inhibition, 48 h
TGI for assorted compounds

TGI for O=C(O)CNC(=O)c1ccc(-c2ccccc2)cc1 is > 100 µM

TGI for CC(C)[C@H](N)C(=O)N1CCC[C@H]1B(O)O is > 100 µM

TGI for O=C(CCCCCCCCC(=O)N/N=C\c1ccccc1O)N/N=C\c1ccccc1O is > 100 µM

* * *

- System: SK-MEL-28 melanoma
- experimental.protocol: NCI tumour cell line growth inhibition, 48 h; in the data active = GI50 below about 0.43 µM; inactive = the rest
Result category, one only: active, inactive

{"compound": "CCCCCCCCCCCCCCCCCCOc1ccccc1CC(=O)OCC[N+]1(C)CCCCC1", "class.name": "inactive"}

input: Name the outcome recorded for CN(C)CCN1C(=O)c2ccccc2N(C)c2ccccc21 in the assay.
output: inactive

input: Name the outcome recorded for COc1ccc(/C(COc2ccc3c(=O)cc(-c4ccccc4)oc3c2)=N\O)cc1 in the assay.
output: inactive

input: Name the outcome recorded for COc1cc(C[C@H]2c3cc(OC)c(OC)cc3CCN2C)c(Oc2cc3c(cc2OC)-c2c(OC)c(OC)cc4c2[C@H](C3)N(C)CC4)cc1OC in the assay.
output: inactive

* * *

TGI for assorted compounds
- Tested on: MDA-MB-435
- experimental.protocol: NCI tumour cell line growth inhibition, 48 h

A selection of reference data follows.
{"compound": "C=CCNC(=O)NC(=O)CSC1=NNC2(C(=O)N1)c1ccccc1-c1ccccc12", "TGI": "> 10 µM"}
{"compound": "COC(=O)C1(CCC(C)=O)CCCCCC1=O (stereo unspecified)", "TGI": "> 100 µM"}
{"compound": "N#Cc1c(N)nc(-c2ccc(Cl)cc2)c2c1-c1ccccc1S(=O)(=O)CC2", "TGI": "> 100 µM"}
{"compound": "CC(=O)C(=C(c1ccccc1)c1ccccc1)c1ccccc1", "TGI": "> 100 µM"}

TGI for Nc1ncnc2c1ncn2C=C=CCO is > 100 µM

TGI for CCOC(=O)/C(C#N)=C\c1ccc(N(CCC(=O)O)CCC(=O)O)c(I)c1 is > 10 µM

* * *

- Test system: SF-268 CNS
- experimental.protocol: NCI tumour cell line growth inhibition, 48 h
GI50 for assorted compounds

A selection of reference data follows.
{"smiles.code": "Cc1nn2c(/C=C3\\C(=O)Nc4ccc(Cl)cc43)c(C)nc2s1", "GI50": "43.2 µM"}
{"smiles.code": "C=C(C)C(=O)Nc1ccc(NC(C)C)cc1", "GI50": "> 100 µM"}

Proceed to the following item.
Record for CCN(CC)CCCCNc1c2ccccc2[n+](C)c2c1[nH]c1ccccc12 under target or system SF-268 CNS: GI50 reported as 0.209 µM

* * *

- System: SR leukemia
- experimental.protocol: NCI tumour cell line growth inhibition, 48 h
*1 amine or outer side, *2 acyl side, *3 side chain or, on linkers, in order; H or OH if unused. Where a SMILES comes first, the peptide text is derived from it. [ ]: non-standard residue; d: D form. The star is where a group is joined. X31 = CC(=O)N(C)SCC(N[*:1])C(=O)[*:2]; Cbz = O=C(OCc1ccccc1)*; Bn = c1ccc(C*)cc1; For = O=C*
test.readout: TGI

A selection of reference data follows.
{"molecule": "CCSc1[nH]c(NC(=S)NC(=O)c2ccccc2Cl)c(C(N)=O)c1C(N)=O", "TGI": "> 10 µM"}
{"molecule": "CC(=O)N(C)SCC(NC(=O)C(Cc1ccccc1)NC(=O)OCc1ccccc1)C(=O)NC(Cc1ccccc1)C(=O)NC(Cc1cn(C=O)c2ccccc12)C(=O)NC(CCCCNC(=O)OCc1ccccc1)C(=O)NC(C(=O)NC(CSN(C)C(C)=O)C(=O)NC(C(N)=O)C(C)OCc1ccccc1)C(C)OCc1ccccc1 (stereo not given) (Cbz-F[X31]FW(For)K(Cbz)T(Bn)[X31]T(Bn)-NH2; configuration not given here)", "TGI": "> 100 µM"}
{"molecule": "N#CC(NC12CC3CC(CC(C3)C1)C2)c1ccc2c(c1)OCO2 (stereo not given)", "TGI": "> 100 µM"}

TGI for [N-]=[N+]=Nc1ccccc1C(=O)N1C(=O)c2ccccc2C(=O)N(C(=O)c2ccccc2N=[N+]=[N-])c2ccccc21 is > 100 µM

TGI for Clc1ccc(NCc2nnc(CCCCCCCCc3nnc(CNc4ccc(Cl)cc4)o3)o2)cc1 is > 100 µM

* * *

TGI for assorted compounds
- Test system: KM20L2 colon
- experimental.protocol: NCI tumour cell line growth inhibition, 48 h

TGI for CCS(CC)(CC)CC1CCCC2=CCC(P(=O)(c3ccccc3)c3ccccc3)CC21 (stereo unspecified) is 25.2 µM

TGI for O=c1[nH]c2cc(Cl)ccc2nc1/C(=N\O)C(O)c1cccc([N+](=O)[O-])c1 (stereo unspecified) is > 100 µM

TGI for Cn1cc2ccccc2c1-c1nc(F)nc(F)n1 is > 100 µM

TGI for CP1(=O)CCCCC1 is > 100 µM

TGI for CC(C)C1CC[C@@H](C)C[C@@]1(O)CC(N)=O (stereo partly specified) is > 100 µM

TGI for CC1=NN(C(=O)c2ccccc2O)C(=O)/C1=C/c1ccco1 is 81 µM

* * *

- Test system: MALME-3M melanoma
- experimental.protocol: NCI tumour cell line growth inhibition, 48 h
test.readout: TGI

A selection of reference data follows.
{"compound": "CNC1=C(C)C(=O)C(=O)C([C@H](C)CCC=C(C)C)=C1O", "TGI": "> 68.6 µM"}
{"compound": "COc1ccc(-c2nc(-c3nc4ccc(OC)cc4[nH]3)c3ccccn23)cc1", "TGI": "70.5 µM"}

TGI for COC(=O)C(=O)C(C(=O)C(=O)Nc1ccc(F)cc1)c1nc2ccc([N+](=O)[O-])cc2[nH]c1=O (stereo not drawn) is > 100 µM

Provenance of the data: PubChem BioAssay (NCI)
